# Emax values compiled below
# TARGET_OF_ASSAY: human F508del-CFTR (Homo sapiens, UniProt P13569, DEL508-508)
# Sequence (P13569 with tags, fused parts or gaps DEL508-508): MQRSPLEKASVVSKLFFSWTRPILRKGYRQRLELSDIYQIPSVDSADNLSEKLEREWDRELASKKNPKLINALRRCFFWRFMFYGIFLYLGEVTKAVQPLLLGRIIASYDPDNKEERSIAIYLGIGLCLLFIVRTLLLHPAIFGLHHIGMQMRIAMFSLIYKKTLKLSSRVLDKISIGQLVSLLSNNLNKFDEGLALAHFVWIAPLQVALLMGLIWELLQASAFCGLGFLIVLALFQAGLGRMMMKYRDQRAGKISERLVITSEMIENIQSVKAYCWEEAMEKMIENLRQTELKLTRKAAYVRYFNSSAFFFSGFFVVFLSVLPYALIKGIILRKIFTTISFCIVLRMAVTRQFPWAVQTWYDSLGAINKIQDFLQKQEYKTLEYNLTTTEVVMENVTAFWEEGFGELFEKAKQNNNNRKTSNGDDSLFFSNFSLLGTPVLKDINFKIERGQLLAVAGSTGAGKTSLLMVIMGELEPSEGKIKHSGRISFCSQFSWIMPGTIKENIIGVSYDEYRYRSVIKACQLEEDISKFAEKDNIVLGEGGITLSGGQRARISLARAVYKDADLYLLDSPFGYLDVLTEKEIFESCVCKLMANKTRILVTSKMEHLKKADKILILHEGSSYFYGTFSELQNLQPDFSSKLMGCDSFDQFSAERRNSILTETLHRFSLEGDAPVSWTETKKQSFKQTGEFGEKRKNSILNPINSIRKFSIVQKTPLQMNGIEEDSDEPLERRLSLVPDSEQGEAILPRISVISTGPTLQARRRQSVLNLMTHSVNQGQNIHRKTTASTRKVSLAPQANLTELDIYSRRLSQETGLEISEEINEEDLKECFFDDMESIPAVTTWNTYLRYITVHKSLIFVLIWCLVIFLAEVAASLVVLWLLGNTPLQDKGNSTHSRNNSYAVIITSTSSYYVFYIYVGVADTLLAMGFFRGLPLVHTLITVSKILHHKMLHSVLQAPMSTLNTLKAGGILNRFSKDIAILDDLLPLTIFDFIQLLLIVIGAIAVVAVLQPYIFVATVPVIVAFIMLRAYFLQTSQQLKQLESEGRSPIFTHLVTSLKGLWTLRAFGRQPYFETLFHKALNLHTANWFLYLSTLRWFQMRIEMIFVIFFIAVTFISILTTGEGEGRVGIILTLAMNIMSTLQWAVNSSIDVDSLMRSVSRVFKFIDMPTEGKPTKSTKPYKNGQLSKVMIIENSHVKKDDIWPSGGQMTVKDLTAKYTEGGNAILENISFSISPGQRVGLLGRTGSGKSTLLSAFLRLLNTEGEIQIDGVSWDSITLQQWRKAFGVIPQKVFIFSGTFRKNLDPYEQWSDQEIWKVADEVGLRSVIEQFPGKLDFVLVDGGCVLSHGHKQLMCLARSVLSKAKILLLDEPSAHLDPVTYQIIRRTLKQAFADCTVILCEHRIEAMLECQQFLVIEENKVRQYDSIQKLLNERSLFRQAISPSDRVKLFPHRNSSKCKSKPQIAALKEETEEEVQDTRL
# PROCEDURE_TEXT: F508del-CFTR cell surface expression (corrector activity), DiscoveRx ß-galactosidase complementation chemiluminescence assay in recombinant U2OS cell line;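 further: U2OS cells co-expressing ProLink-tagged F508del-CFTR and a membrane-anchored enzyme acceptor, where more surface CFTR restores β-galactosidase activity measured by chemiluminescence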
# ASSAY_SETUP: U2OS, in relation to the Emax of the corrector lumacaftor (=100%); U2OS cell line, 16h compound incubation; arithmetic mean values
ASSAY_READOUT: Emax (%)

[[record]]
compound = "C#CC[C@H]1C(=O)N(CCC2CCCCC2)CC(=O)N[C@H](Cc2ccccc2)COc2ccc3ccccc3c2C(=O)N[C@H](C(=O)NCCc2ccc3c(c2)OCO3)CC(=O)N1C [Example 339]"
assay_readout = "Emax"
meas_value = 237

[[record]]
compound = "COc1cccc(CCNC(=O)[C@@H]2CC(=O)N(C)[C@@H](CC3CCCCC3)C(=O)N(C[C@@H]3CCCCO3)CC(=O)N[C@H](Cc3ccccc3)COc3ccc4ccccc4c3C(=O)N2)c1 (racemic) [Example 294]"
assay_readout = "Emax"
meas_value = 138

[[record]]
compound = "COc1cccc(CCNC(=O)[C@@H]2CC(=O)N(C)[C@@H](CC(C)C)C(=O)N3CC=CC[C@@H]3C(=O)N[C@H](Cc3ccccc3)COc3ccc4ccccc4c3C(=O)N2)c1 [Example 376]"
assay_readout = "Emax"
meas_value = 284

[[record]]
compound = "Cc1cccc(CCNC(=O)[C@@H]2CC(=O)N(C)[C@@H](CC(C)C)C(=O)N3CCOC[C@@H]3C(=O)N[C@H](Cc3ccccc3)COc3cnc4ccccc4c3C(=O)N2)c1 [Example 62]"
assay_readout = "Emax"
meas_value = 222

[[record]]
compound = "CC(C)C[C@H]1C(=O)N(C)CC(=O)N[C@H](Cc2ccccc2)COc2cnc3ccccc3c2C(=O)N[C@H](C(=O)NCCc2ccc3c(c2)OCO3)CC(=O)N1C [Example 318]"
assay_readout = "Emax"
meas_value = 295

[[record]]
compound = "COc1cccc2c1C(=O)N[C@H](C(=O)NCCc1nc3ccccc3o1)CC(=O)N(C)[C@@H](CC(C)C)C(=O)N(CCC1CCCCC1)CC(=O)N[C@H](Cc1ccccc1)CO2 (racemic) [Example 16]"
assay_readout = "Emax"
meas_value = 137

[[record]]
compound = "COc1cccc(CCNC(=O)[C@@H]2CC(=O)N(C)[C@@H](CC(C)C)C(=O)N(CCC3CCCCC3)CC(=O)N[C@H](Cc3ccccc3)COc3cccc(OC)c3C(=O)N2)n1 [Example 220]"
assay_readout = "Emax"
meas_value = 103

[[record]]
compound = "CC(C)C[C@H]1C(=O)N(CCC2CCCCC2)CC(=O)N[C@H](Cc2ccccc2)COc2cnccc2C(=O)N[C@H](C(=O)NCCc2ccc3c(c2)OCO3)CC(=O)N1C [Example 265]"
assay_readout = "Emax"
meas_value = 106

[[record]]
compound = "CC(C)C[C@H]1C(=O)N(C)C2(CC2)C(=O)N[C@H](Cc2ccccc2)COc2cnc3ccc(F)cc3c2C(=O)N[C@H](C(=O)NCCc2c(F)cccc2F)CC(=O)N1C [Example 132]"
assay_readout = "Emax"
meas_value = 313

[[record]]
compound = "COCCCc1cnn(CCNC(=O)[C@@H]2CC(=O)N(C)[C@@H](CC(C)C)C(=O)N(C)C3(CC3)C(=O)N[C@H](Cc3ccccc3)COc3cnc4ccc(F)cc4c3C(=O)N2)c1 [Example 174]"
assay_readout = "Emax"
meas_value = 194

[[record]]
compound = "COc1cccc2c1C(=O)N[C@H](C(=O)NCCc1cccs1)CC(=O)N(C)[C@@H](CC(C)C)C(=O)N(CCC1CCCCC1)CC(=O)N[C@H](Cc1ccccc1)CO2 [Example 206]"
assay_readout = "Emax"
meas_value = 164

[[record]]
compound = "CC(C)C[C@H]1C(=O)N2CCOC[C@@H]2C(=O)N[C@H](Cc2ccccc2)COc2ccc3ccccc3c2C(=O)N[C@H](C(=O)NCCc2ccc(C#N)cc2)CC(=O)N1C [Example 40]"
assay_readout = "Emax"
meas_value = 147

[[record]]
compound = "COc1cccc(CCNC(=O)[C@@H]2CC(=O)N(C)[C@@H](CC(C)C)C(=O)N(CCC3CCCCC3)CC(=O)N[C@H](Cc3ccccc3)COc3ccc4ccccc4c3C(=O)N2)c1 (racemic) [Example 303]"
assay_readout = "Emax"
meas_value = 275

